- Tested on: Staphylococcus aureus ATCC 6538P
Catalogue of molecules with associated MIC

- MOLECULE: "CCCCC(C)/C=C(C)/C=C/C(=O)NC1=CC(=O)C2OC2C1=O (centres unmarked) [UCF1-BX]"
  ASSAYED_TARGET: "Staphylococcus aureus ATCC 6538P"
  MIC / µg/mL: 8.3
- MOLECULE: "CCCCC(C)/C=C(\\C)C(=O)NC1=CC(O)(/C=C/C=C/C=C/C(=O)NC2=C(O)CCC2=O)C2OC2C1=O (centres unmarked) [UCF1-A]"
  ASSAYED_TARGET: "Staphylococcus aureus ATCC 6538P"
  MIC / µg/mL: 2.6
- MOLECULE: "CCCCC(C)/C=C(\\C)C(=O)NC1=CC(=O)C2OC2C1=O (centres unmarked) [UCF1-AX]"
  ASSAYED_TARGET: "Staphylococcus aureus ATCC 6538P"
  MIC / µg/mL: 10
- MOLECULE: "CCCCC(C)/C=C(C)/C=C(\\C)C(=O)NC1=CC(O)(/C=C/C=C/C=C/C(=O)NC2=C(O)CCC2=O)C2OC2C1=O (centres unmarked) [Manumycin, reference compound]"
  ASSAYED_TARGET: "Staphylococcus aureus ATCC 6538P"
  MIC / µg/mL: 1.3
- MOLECULE: "CCCCC(C)/C=C(C)/C=C/C(=O)NC1=CC(O)(/C=C/C=C/C=C/C(=O)NC2=C(O)CCC2=O)C2OC2C1=O (centres unmarked) [UCF1-B]"
  ASSAYED_TARGET: "Staphylococcus aureus ATCC 6538P"
  MIC / µg/mL: 2.6

###

As an illustration, consider measured MIC for compounds on Escherichia coli ATCC 26.

- COMPOUND: "CCCCC(C)/C=C(C)/C=C/C(=O)NC1=CC(O)(/C=C/C=C/C=C/C(=O)NC2=C(O)CCC2=O)C2OC2C1=O (centres unmarked) [UCF1-B]"
  MIC: "> 100 µg/mL"
- COMPOUND: "CCCCC(C)/C=C(\\C)C(=O)NC1=CC(=O)C2OC2C1=O (centres unmarked) [UCF1-AX]"
  MIC: "21 µg/mL"
- COMPOUND: "CCCCC(C)/C=C(C)/C=C(\\C)C(=O)NC1=CC(O)(/C=C/C=C/C=C/C(=O)NC2=C(O)CCC2=O)C2OC2C1=O (centres unmarked) [Manumycin, reference compound]"
  MIC: "> 100 µg/mL"
- COMPOUND: "CCCCC(C)/C=C(\\C)C(=O)NC1=CC(O)(/C=C/C=C/C=C/C(=O)NC2=C(O)CCC2=O)C2OC2C1=O (centres unmarked) [UCF1-A]"
  MIC: "> 100 µg/mL"
- COMPOUND: "CCCCC(C)/C=C(C)/C=C/C(=O)NC1=CC(=O)C2OC2C1=O (centres unmarked) [UCF1-BX]"
  MIC: "> 100 µg/mL"

###

- System: Shigella sonnei ATCC 9290
Form field: MIC (one value per entry).

- COMPOUND: "CCCCC(C)/C=C(\\C)C(=O)NC1=CC(O)(/C=C/C=C/C=C/C(=O)NC2=C(O)CCC2=O)C2OC2C1=O (centres unmarked)"
  MIC: "> 100 µg/mL"
- COMPOUND: "CCCCC(C)/C=C(C)/C=C/C(=O)NC1=CC(O)(/C=C/C=C/C=C/C(=O)NC2=C(O)CCC2=O)C2OC2C1=O (centres unmarked)"
  MIC: "> 100 µg/mL"
- COMPOUND: "CCCCC(C)/C=C(C)/C=C(\\C)C(=O)NC1=CC(O)(/C=C/C=C/C=C/C(=O)NC2=C(O)CCC2=O)C2OC2C1=O (centres unmarked) [Manumycin, reference compound]"
  MIC: "> 100 µg/mL"
- COMPOUND: "CCCCC(C)/C=C(C)/C=C/C(=O)NC1=CC(=O)C2OC2C1=O (centres unmarked)"
  MIC: "> 100 µg/mL"
- COMPOUND: "CCCCC(C)/C=C(\\C)C(=O)NC1=CC(=O)C2OC2C1=O (centres unmarked)"
  MIC: "10 µg/mL"

###

- ASSAY_SUMMARY: Solubility in various solvents
- Format: physicochemical
- CONDITION_SET: water; n-hexane where named
ASSAY_READOUT: Solubility in various solvents (insoluble)

- COMPOUND: "CCCCC(C)/C=C(C)/C=C/C(=O)NC1=CC(=O)C2OC2C1=O (stereo not shown)"
  TEST_VALUE: "Insoluble in water"
- COMPOUND: "CCCCC(C)/C=C(\\C)C(=O)NC1=CC(=O)C2OC2C1=O (stereo not shown)"
  TEST_VALUE: "Insoluble in water"

###

Quick record of MIC values for Salmonella typhi ATCC 9992.

- MOLECULE: "CCCCC(C)/C=C(C)/C=C/C(=O)NC1=CC(O)(/C=C/C=C/C=C/C(=O)NC2=C(O)CCC2=O)C2OC2C1=O (centres unmarked)"
  MIC: "> 100 µg/mL"
- MOLECULE: "CCCCC(C)/C=C(\\C)C(=O)NC1=CC(=O)C2OC2C1=O (centres unmarked)"
  MIC: "21 µg/mL"
- MOLECULE: "CCCCC(C)/C=C(\\C)C(=O)NC1=CC(O)(/C=C/C=C/C=C/C(=O)NC2=C(O)CCC2=O)C2OC2C1=O (centres unmarked)"
  MIC: "> 100 µg/mL"
- MOLECULE: "CCCCC(C)/C=C(C)/C=C(\\C)C(=O)NC1=CC(O)(/C=C/C=C/C=C/C(=O)NC2=C(O)CCC2=O)C2OC2C1=O (centres unmarked) [Manumycin, reference compound]"
  MIC: "> 100 µg/mL"
- MOLECULE: "CCCCC(C)/C=C(C)/C=C/C(=O)NC1=CC(=O)C2OC2C1=O (centres unmarked)"
  MIC: "> 100 µg/mL"
